Molecular target: NDM-1 (Klebsiella pneumoniae, UniProt C7C422)
Sequence (C7C422 whole entry, looked up, species assumed): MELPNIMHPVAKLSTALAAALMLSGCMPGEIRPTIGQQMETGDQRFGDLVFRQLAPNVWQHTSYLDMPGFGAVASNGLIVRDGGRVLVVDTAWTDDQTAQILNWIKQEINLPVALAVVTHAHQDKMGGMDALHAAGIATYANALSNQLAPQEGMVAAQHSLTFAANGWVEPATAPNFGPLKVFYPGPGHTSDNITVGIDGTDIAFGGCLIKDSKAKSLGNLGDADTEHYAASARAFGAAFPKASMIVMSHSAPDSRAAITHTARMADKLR
Assay: biochemical
Assay type: biochemical
Conditions: fluorescence assay, CCF2-FA substrate, 1 pM enzyme, 2 hours at 25° C.; read-out: NDM-1 IC50
Task for the reader: assign each of the following molecules its reported pIC50.
The meaning of pIC50 here: minus log10 of the concentration in molar units.

Ask: Dear colleague, I am looking for the recorded pIC50 of the following molecule: Cn1c(N)nc2c(-c3ccc(S(=O)(=O)N[C@H]4CCNC4)c(S(N)(=O)=O)c3-c3nn[nH]n3)cccc21 [Example 163]
Reply: 10.22

Ask: Dear colleague, I am looking for the recorded pIC50 of the following molecule: Nc1nc(-c2cccc(-c3ccc(S(=O)(=O)N[C@@H]4CCNC4)c(S(N)(=O)=O)c3-c3nn[nH]n3)c2)c[nH]1 [Example 428]
Reply: 10.33

Ask: Dear colleague, I am looking for the recorded pIC50 of the following molecule: NCCNS(=O)(=O)c1ccc(-c2ccc3[nH]c(CN)nc3c2)c(-c2nn[nH]n2)c1S(N)(=O)=O [Example 466]
Reply: 9.45

Ask: Dear colleague, I am looking for the recorded pIC50 of the following molecule: Cc1cc(-c2ccc(S(=O)(=O)NC[C@H](O)CN)c(S(N)(=O)=O)c2-c2nn[nH]n2)cnc1N [Example 477]
Reply: 9.55
